- Tested on: Calf thymus DNA
- ASSAY REMARKS: Binding affinity to calf thymus DNA in 10 mM pH 7.4 Tris-Hcl buffer containing 0.1 mM EDTA and 40 mM NaCl by CD spectroscopy
- TEST CONDITIONS: Bos taurus
Calls of active or inactive are those of the source. No cut-off for these calls is given here.
Field 'call' accepts active, inactive

Here are 3 compounds together with their reported answers.
CN1CCN(CCCCn2c3ccc(-c4nc5cc(N6CCOCC6)ccc5[nH]4)cc3c3cc(-c4nc5cc(N6CCOCC6)ccc5[nH]4)ccc32)CC1 | inactive
CN1CCN(CCCCn2c3ccc(-c4nc5cc(N6CCN(C)CC6)ccc5[nH]4)cc3c3cc(-c4nc5cc(N6CCN(C)CC6)ccc5[nH]4)ccc32)CC1 | inactive
CN1CCN(CCCCn2c3ccc(-c4nc5cc(-c6nc7cc(N8CCN(C)CC8)ccc7[nH]6)ccc5[nH]4)cc3c3cc(-c4nc5cc(-c6nc7cc(N8CCN(C)CC8)ccc7[nH]6)ccc5[nH]4)ccc32)CC1 | active

Continue with the next compound.
Would you mind telling me which call this test gave CN1CCN(CCCCn2c3ccc(-c4nc5cc(N6CCN(CCO)CC6)ccc5[nH]4)cc3c3cc(-c4nc5cc(N6CCN(CCO)CC6)ccc5[nH]4)ccc32)CC1 ? inactive

----------
- Species on record: Homo sapiens
- ASSAY REMARKS: Binding affinity to human Hum21 [5'-G3(T2AG3)3-3'] G-quadruplex DNA assessed as change in melting temperature in 10 mM pH 7.4 Tris-Hcl buffer containing 0.1 mM EDTA and […] measured after 12 hrs by UV-Vis absorption sperctrometry (reference value: 7 to 13 degC)
MEASURE NAME: ΔTm (°C)
Answers are plain numbers, in °C.

CN1CCN(CCCCn2c3ccc(-c4nc5cc(N6CCN(C)CC6)ccc5[nH]4)cc3c3cc(-c4nc5cc(N6CCN(C)CC6)ccc5[nH]4)ccc32)CC1 | 16

// batch mode: one ΔTm value per listed entry
1. CN1CCN(CCCCn2c3ccc(-c4nc5cc(-c6nc7cc(N8CCN(C)CC8)ccc7[nH]6)ccc5[nH]4)cc3c3cc(-c4nc5cc(-c6nc7cc(N8CCN(C)CC8)ccc7[nH]6)ccc5[nH]4)ccc32)CC1
2. CN1CCN(CCCCn2c3ccc(-c4nc5cc(N6CCOCC6)ccc5[nH]4)cc3c3cc(-c4nc5cc(N6CCOCC6)ccc5[nH]4)ccc32)CC1
3. CN1CCN(CCCCn2c3ccc(-c4nc5cc(N6CCN(CCO)CC6)ccc5[nH]4)cc3c3cc(-c4nc5cc(N6CCN(CCO)CC6)ccc5[nH]4)ccc32)CC1

[10, 7, 19]

----------
Give measured pIC50 for each item. Keep answers brief.
- System: A549
- ASSAY REMARKS: Cytotoxicity against human A549 cells after 72 hrs by MTT assay
- Assay type: functional, cell-based
- TEST CONDITIONS: A549, 72 h
Give bare numbers, as −log10 of the molar value.

CN1CCN(CCCCn2c3ccc(-c4nc5cc(N6CCN(CCO)CC6)ccc5[nH]4)cc3c3cc(-c4nc5cc(N6CCN(CCO)CC6)ccc5[nH]4)ccc32)CC1 | 5.10

# next compound below
// lookup pIC50 | system=A549 | key= CN1CCN(CCCCn2c3ccc(-c4nc5cc(N6CCN(C)CC6)ccc5[nH]4)cc3c3cc(-c4nc5cc(N6CCN(C)CC6)ccc5[nH]4)ccc32)CC1 5.10

----------
Give measured pKd for each item. Keep answers brief.
- System: Calf thymus DNA
- ASSAY REMARKS: Binding affinity to calf thymus DNA in 10 mM pH 7.4 Tris-Hcl buffer containing 0.1 mM EDTA and 40 mM NaCl by fluorescence spectroscopy
- Format: nucleic-acid assay, Bos taurus
One number for each entry, as −log10 of the molar value.

Below, each entry is followed by its recorded pKd result.
CN1CCN(CCCCn2c3ccc(-c4nc5cc(N6CCN(C)CC6)ccc5[nH]4)cc3c3cc(-c4nc5cc(N6CCN(C)CC6)ccc5[nH]4)ccc32)CC1 | 3.71
CN1CCN(CCCCn2c3ccc(-c4nc5cc(N6CCOCC6)ccc5[nH]4)cc3c3cc(-c4nc5cc(N6CCOCC6)ccc5[nH]4)ccc32)CC1 | 3.51
CN1CCN(CCCCn2c3ccc(-c4nc5cc(N6CCN(CCO)CC6)ccc5[nH]4)cc3c3cc(-c4nc5cc(N6CCN(CCO)CC6)ccc5[nH]4)ccc32)CC1 | 4.60

# next compound below
// lookup pKd | system=Calf thymus DNA | key= CN1CCN(CCCCn2c3ccc(-c4nc5cc(-c6nc7cc(N8CCN(C)CC8)ccc7[nH]6)ccc5[nH]4)cc3c3cc(-c4nc5cc(-c6nc7cc(N8CCN(C)CC8)ccc7[nH]6)ccc5[nH]4)ccc32)CC1 4.05

----------
- ASSAY REMARKS: Displacement of thiazole orange from human Hum21 [5'-G3(T2AG3)3-3'] G-quadruplex DNA in presence of 10 mM pH 7.4 Tris-Hcl buffer containing 0.1 mM EDTA and […] by fluorescent intercalator displacement assay
MEASURE NAME: DC50 (nM)
Give bare numbers, in nM.

Below, each entry is followed by its recorded DC50 result.
CN1CCN(CCCCn2c3ccc(-c4nc5cc(N6CCOCC6)ccc5[nH]4)cc3c3cc(-c4nc5cc(N6CCOCC6)ccc5[nH]4)ccc32)CC1 | 1010
CN1CCN(CCCCn2c3ccc(-c4nc5cc(N6CCN(C)CC6)ccc5[nH]4)cc3c3cc(-c4nc5cc(N6CCN(C)CC6)ccc5[nH]4)ccc32)CC1 | 610
CN1CCN(CCCCn2c3ccc(-c4nc5cc(-c6nc7cc(N8CCN(C)CC8)ccc7[nH]6)ccc5[nH]4)cc3c3cc(-c4nc5cc(-c6nc7cc(N8CCN(C)CC8)ccc7[nH]6)ccc5[nH]4)ccc32)CC1 | 1360

# next molecule below
Please give the measured DC50 for this molecule: CN1CCN(CCCCn2c3ccc(-c4nc5cc(N6CCN(CCO)CC6)ccc5[nH]4)cc3c3cc(-c4nc5cc(N6CCN(CCO)CC6)ccc5[nH]4)ccc32)CC1 1120
